Target: Tpx WT (Trypanosoma brucei brucei, UniProt O77404)
Sequence (O77404 1-144): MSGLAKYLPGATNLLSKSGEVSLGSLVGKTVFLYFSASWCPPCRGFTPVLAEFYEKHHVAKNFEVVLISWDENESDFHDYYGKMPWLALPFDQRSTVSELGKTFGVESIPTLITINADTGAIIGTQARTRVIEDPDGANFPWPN
Experiment: biochemical
Format: binding
Details: Tpx WT with or without molecular glue; from linear fits of dissociation plots
For each of the compounds below, state its rD,LILBID @ 1100 µm.
Give bare numbers.

Solved entries:
| compound | rD,LILBID @ 1100 µm |
| --- | --- |
| O=c1[nH]c(CCl)nc2scc(-c3ccc(F)cc3)c12 [para-CFT] | 0.798 |
| O=c1[nH]c(CCl)nc2scc(-c3ccccc3)c12 [CPT] | 0.871 |
| O=c1[nH]c(CCl)nc2scc(-c3ccc(C(F)(F)F)cc3)c12 [CtFT] | 0.983 |
| O=c1[nH]c(CCl)nc2scc(-c3cccc(F)c3)c12 [meta-CFT] | 0.809 |

Noted rD,LILBID @ 1100 µm for O=c1[nH]c(CCl)nc2scc(-c3ccccc3F)c12 [ortho-CFT] , tested on Tpx WT (Trypanosoma brucei brucei, UniProt O77404): 0.897
